These entries and their values trace back to patent US6607710B1.

Field: Biodistribution, Urine. Provide a value for each of the compounds that follow.
# Protocol Notes: Determination of biodistribution of radiolabeled compounds in rats after caudal vein administration
# Type: in vivo, SD strain rats
# Reported Conditions: SD-rats female, n = 3, caudal vein, 120 Minutes after administration

Per the record, O=C(NCC(P(=O)(O)O)P(=O)(O)O)c1ccccc1I has Biodistribution, Urine of 41.54 ± 4.19 % ID

Per the record, O=C(O)CNC(=O)CC(P(=O)(O)O)P(=O)(O)O (99mTc complex, metal not drawn) has Biodistribution, Urine of 48.15 ± 1.50 % ID

* * *

# Protocol Notes: Determination of biodistribution of radiolabeled compounds in rats after caudal vein administration
# Assay type: in vivo, SD strain rats
# Reported Conditions: SD-rats female, n = 3, caudal vein, 15 Minutes after administration
Measure Name: Biodistribution, Femur and Tibia (% ID/g)
Record the value in % ID/g, omitting the unit from your answer.

Per the record, O=C(O)CNC(=O)CC(P(=O)(O)O)P(=O)(O)O (99mTc complex, metal not drawn) has Biodistribution, Femur and Tibia of 3.014
